target: TANK-2 enzyme (Homo sapiens, UniProt Q9H2K2); construct: inferred from capture on Ni-coated flash plate; made in house; experiment: In vitro scintillation proximity assay (SPA) for TANK-2 inhibitory activity; assay type: biochemical; settings: auto-poly(ADP-ribosyl)ation, [3H]-NAD+, 96- or 384-well Ni Flash plates; read-out: in vitro SPA TANK-2 pIC50 (converted)
Sequence (Q9H2K2 whole entry): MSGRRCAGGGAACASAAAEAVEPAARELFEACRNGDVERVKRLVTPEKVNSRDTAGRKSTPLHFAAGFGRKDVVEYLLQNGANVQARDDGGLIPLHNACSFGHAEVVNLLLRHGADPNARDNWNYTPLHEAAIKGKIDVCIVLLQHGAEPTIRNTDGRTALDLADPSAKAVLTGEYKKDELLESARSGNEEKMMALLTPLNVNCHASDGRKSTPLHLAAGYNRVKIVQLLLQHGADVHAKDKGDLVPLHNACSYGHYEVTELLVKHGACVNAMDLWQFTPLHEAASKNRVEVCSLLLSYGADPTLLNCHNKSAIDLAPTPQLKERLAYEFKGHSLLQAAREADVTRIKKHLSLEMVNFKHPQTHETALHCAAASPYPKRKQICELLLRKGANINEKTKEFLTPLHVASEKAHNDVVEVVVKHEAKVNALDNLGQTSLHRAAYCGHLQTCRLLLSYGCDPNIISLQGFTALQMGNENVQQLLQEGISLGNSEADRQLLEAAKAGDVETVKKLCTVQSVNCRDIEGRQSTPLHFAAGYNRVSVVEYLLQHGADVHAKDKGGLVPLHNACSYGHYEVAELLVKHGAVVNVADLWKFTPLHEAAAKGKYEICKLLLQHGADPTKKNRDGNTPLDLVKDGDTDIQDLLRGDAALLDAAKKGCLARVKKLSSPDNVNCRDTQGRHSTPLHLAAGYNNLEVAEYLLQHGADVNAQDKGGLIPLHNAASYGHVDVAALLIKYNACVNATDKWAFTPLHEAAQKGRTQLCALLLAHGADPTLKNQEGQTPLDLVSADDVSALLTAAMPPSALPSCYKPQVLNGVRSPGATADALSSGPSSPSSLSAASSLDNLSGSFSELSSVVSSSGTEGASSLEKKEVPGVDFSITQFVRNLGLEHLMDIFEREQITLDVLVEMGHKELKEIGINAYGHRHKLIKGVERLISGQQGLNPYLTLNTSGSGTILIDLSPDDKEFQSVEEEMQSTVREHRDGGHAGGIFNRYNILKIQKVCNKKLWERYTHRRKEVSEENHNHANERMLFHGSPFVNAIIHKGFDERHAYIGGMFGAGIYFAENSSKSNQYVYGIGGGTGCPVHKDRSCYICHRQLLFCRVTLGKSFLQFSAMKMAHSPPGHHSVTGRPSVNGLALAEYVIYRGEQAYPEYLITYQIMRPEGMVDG
IC50 values for the compounds below.

For orientation, consider the following solved cases.
> print(dat)
                                   compound  observed.result
1  O=C(NC1CCN(CCCC2NC(=O)c3ccccc3N2)CC1)c1ccccc1 (stereo not drawn)          > 10 µM
2  NC(=O)C1(c2ccccc2)CCN(CCCc2nc3ccccc3c(=O)[nH]2)CC1          > 10 µM

Look up IC50: O=C1NC(CCN2CCC3(CC2)C(=O)NCN3c2ccccc2)Nc2ccccc21 (stereo not drawn)
7.43 µM

Reported IC50, compound NC(=O)C1(N2CCOCC2)CCN(CCCc2nc3ccccc3c(=O)[nH]2)CC1 : ____
> 10 µM

IC50 for O=C1NC(CCN2CCC(C(=O)c3ccc(F)cc3)CC2)Nc2ccccc21 (stereo not drawn) ?
> 10 µM

Requested field: IC50. Item: O=C1NCN(c2ccccc2)C12CCN(CCCc1nc3ccccc3c(=O)[nH]1)CC2
> 10 µM

Which value of IC50 has been reported for O=C(c1ccc(F)cc1)C1CCN(CCCc2nc3ccccc3c(=O)[nH]2)CC1 in the records?
> 10 µM

Find the recorded IC50 belonging to O=C1NC(CCCN2CCC(n3c(=O)[nH]c4ccccc43)CC2)Nc2ccccc21 (stereo not drawn) and report it.
< 10 µM

Would you kindly share the measured IC50 for O=C(c1ccc(F)cc1)C1CCN(CCc2nc3ccccc3c(=O)[nH]2)CC1 ?
> 10 µM

Which IC50 is listed for O=C(NC1CCN(CCCc2nc3ccccc3c(=O)[nH]2)CC1)c1ccccc1 ?
> 10 µM

Field request: IC50 | item: NC(=O)C1(c2ccccc2)CCN(CCCC2NC(=O)c3ccccc3N2)CC1 (stereo not drawn)
> 10 µM

What IC50 value was documented for this compound, O=C(CC1CCN(CCc2nc3ccccc3c(=O)[nH]2)CC1)c1ccc(F)cc1 ?
2.48 µM
